Values compiled from patent US20130315843A1.

- Test system: UniProt O75762
- Run description: FLIPR Ca2+ assay, reduction of hydrogen peroxide activation of TRPA1
- Format: cell-based
- Parameters: expressed in transfected cells
Observation type: % Reduction of Hydrogen Peroxide TRPA1 Activation (%)
Reply with just the number (in %).

Below are worked cases with known answers.
CCCCCCCCC1CCC(=O)O1 (stereo not drawn) [γ-Dodecalactone]
51
CCCCCCC1CCCC(=O)O1 (stereo not drawn) [Undecanoic-δ-Lactone]
−42

% Reduction of Hydrogen Peroxide TRPA1 Activation for Cc1ccc(C(C)(C)O)cc1 [p-cymen-8-ol] is 50.6

----------
The entries below are paired with their reported Average Ca++ Counts.
- Test system: human TRPA1 (Homo sapiens, UniProt O75762)
- Sequence (O75762 whole entry): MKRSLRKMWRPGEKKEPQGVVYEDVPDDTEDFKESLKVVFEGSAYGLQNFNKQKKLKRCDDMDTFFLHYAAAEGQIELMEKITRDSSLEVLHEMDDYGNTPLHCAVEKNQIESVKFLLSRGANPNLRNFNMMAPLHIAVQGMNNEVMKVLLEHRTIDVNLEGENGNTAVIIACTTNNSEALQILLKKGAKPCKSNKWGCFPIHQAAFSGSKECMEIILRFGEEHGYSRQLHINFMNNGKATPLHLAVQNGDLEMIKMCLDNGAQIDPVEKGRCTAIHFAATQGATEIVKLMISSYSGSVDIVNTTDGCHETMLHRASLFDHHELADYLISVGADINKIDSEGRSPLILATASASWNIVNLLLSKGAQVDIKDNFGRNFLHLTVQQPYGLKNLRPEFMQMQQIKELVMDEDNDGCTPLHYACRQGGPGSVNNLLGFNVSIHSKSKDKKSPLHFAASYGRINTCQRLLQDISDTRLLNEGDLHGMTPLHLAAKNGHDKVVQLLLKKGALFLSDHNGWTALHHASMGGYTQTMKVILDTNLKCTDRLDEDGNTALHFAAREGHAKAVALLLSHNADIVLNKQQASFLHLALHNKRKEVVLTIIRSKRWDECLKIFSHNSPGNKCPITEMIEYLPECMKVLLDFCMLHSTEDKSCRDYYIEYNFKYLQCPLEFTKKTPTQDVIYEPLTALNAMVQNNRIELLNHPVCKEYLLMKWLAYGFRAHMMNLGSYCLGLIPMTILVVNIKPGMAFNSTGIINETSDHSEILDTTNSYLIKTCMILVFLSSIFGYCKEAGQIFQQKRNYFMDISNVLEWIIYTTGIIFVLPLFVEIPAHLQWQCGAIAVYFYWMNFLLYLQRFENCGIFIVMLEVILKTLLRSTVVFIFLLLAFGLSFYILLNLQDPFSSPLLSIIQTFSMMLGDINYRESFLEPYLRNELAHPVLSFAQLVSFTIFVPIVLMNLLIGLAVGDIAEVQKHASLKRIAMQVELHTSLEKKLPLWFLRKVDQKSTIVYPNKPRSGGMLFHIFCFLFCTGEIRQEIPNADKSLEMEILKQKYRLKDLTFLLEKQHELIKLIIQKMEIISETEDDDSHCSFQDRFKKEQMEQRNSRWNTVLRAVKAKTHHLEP
- Run description: FLIPR Ca2+ assay, reduction of hydrogen peroxide activation of TRPA1
- Type: cell-based
- Set-up: expressed in transfected cells
- Measurement conditions: compound 100 μM against 200 μM hydrogen peroxide; Sets 1-4
Record the value in Counts, omitting the unit from your answer.

Use these answered entries as a reference point.
CCCCCC(=O)CCCCC [6-undecanone]
3357.5
C1CNCCN1 [piperazine]
2815.5

In plain terms, CC12CCC(C1)C(C)(C)C2=O (stereo not drawn) [fenchone] has a documented Average Ca++ Counts of 2761.5

----------
- Test system: human TRPV1 (Homo sapiens, UniProt Q8NER1)
- Sequence (Q8NER1 whole entry): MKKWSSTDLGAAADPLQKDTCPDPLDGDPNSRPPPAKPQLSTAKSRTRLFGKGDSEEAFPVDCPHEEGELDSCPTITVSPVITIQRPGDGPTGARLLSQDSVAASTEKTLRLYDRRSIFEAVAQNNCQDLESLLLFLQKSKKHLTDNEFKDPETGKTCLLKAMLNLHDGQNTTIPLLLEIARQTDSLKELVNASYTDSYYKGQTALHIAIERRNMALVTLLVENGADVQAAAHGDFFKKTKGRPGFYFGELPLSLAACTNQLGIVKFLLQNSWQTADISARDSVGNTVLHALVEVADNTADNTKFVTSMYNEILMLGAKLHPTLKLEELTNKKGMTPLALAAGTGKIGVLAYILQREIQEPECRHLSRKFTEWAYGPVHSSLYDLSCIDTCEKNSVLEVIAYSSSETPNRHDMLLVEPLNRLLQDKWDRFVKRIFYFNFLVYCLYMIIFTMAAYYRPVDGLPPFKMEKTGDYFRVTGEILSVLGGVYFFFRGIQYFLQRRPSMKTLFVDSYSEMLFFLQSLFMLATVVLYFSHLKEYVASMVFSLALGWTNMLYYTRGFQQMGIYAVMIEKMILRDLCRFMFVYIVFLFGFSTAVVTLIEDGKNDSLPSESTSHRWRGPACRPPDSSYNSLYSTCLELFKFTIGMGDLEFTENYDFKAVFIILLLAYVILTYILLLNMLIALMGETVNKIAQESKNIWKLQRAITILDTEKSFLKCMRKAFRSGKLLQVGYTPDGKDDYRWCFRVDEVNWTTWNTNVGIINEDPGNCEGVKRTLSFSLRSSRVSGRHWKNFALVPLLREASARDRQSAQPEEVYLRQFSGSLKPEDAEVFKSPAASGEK
- Run description: FLIPR Ca2+ assay, reduction of L-Menthol activation of TRPV1
- Measurement conditions: read-out: % Reduction of L-Menthol TRPV1 Activation
Where a name gives a salt, the structure may show the parent alone.
Observation type: inhibition at 100 µM (%)
Write down the numeric answer in % and omit the unit.

The examples below pair each entry with its known result.
COc1ccc(C)cc1C
33.9
CCOC(=O)CCc1ccco1 [ethyl 3-(2-furyl)propionate]
30.5
CCCCC/C=C/CCC(=O)OCC [ethyl trans-4-decenoate]
24.6
CCCCCCCCSC [methyl n-octyl sulfide]
40.1
CC(C)CCOC=O [isopentyl formate]
24.8
CCC(C)C1CCCCC1=O (stereo not shown)
29.4

So the reported inhibition at 100 µM for CC(=O)OCCC(C)S (stereo not shown) [3-mercaptobutyl acetate] , on human TRPV1 (Homo sapiens, UniProt Q8NER1), turned out to be 42.8

Considering CCc1occc(=O)c1O [2-ethyl-3-hydroxy-4h-pyran-4-one] , its inhibition at 100 µM with human TRPV1 (Homo sapiens, UniProt Q8NER1) was recorded as 41.3

Sample `O=C(CCl)c1ccccc1` , system: human TRPV1 (Homo sapiens, UniProt Q8NER1). Its inhibition at 100 µM is 31.2

The measured inhibition at 100 µM that C=CCOC(=O)CCCCCCC [allyl caprylate] showed for human TRPV1 (Homo sapiens, UniProt Q8NER1) is 44.6

Response field inhibition at 100 µM (human TRPV1 (Homo sapiens, UniProt Q8NER1)) for item `COc1ccccc1C` : 40.7

----------
Recorded Average Ca2+ Counts for the following compounds
- Test system: UniProt:Q8NER1
- Run description: FLIPR Ca2+ assay, reduction of L-Menthol activation of TRPV1
- Measurement conditions: antagonist 100 μM against 1 mM L-Menthol

CC(=O)OCCC(C)S (stereo not shown) [3-mercaptobutyl acetate]
1061.3 Counts
CC1(O)CSC(C)(O)CS1 (stereo not shown) [2,5-dimethyl-1,4-dithiane-2,5-diol]
713.7 Counts
C=CCOC(=O)CCC1CCCCC1 [allyl cyclohexanepropionate]
4895.5 Counts

Average Ca2+ Counts value, target or system UniProt:Q8NER1, for O=C(Nc1ccccc1C(=O)O)c1ccccc1 [2-benzoylamino-benzoic acid] : 1207.7 Counts

Average Ca2+ Counts of COC(=O)c1cccnc1 [methyl nicotinate] , assay on UniProt:Q8NER1, is 1483.7 Counts

Field Average Ca2+ Counts (UniProt:Q8NER1), entry C[C@@H](CO)c1ccccc1 [(r)-(+)-2-phenyl-1-propanol] : 1414.0 Counts

Observed Average Ca2+ Counts, UniProt:Q8NER1, Cc1occc1S [2-methyl-3-furanthiol] : 2835.5 Counts
